I'd be grateful if you could share measured Activity for these entries.
# testSummary: Antioxidant activity in pH 7.4 PBS assessed as H2O2 oxidation at 50 uM incubated for 10 mins in presence of HRP and H2O2 by UV spectroscopy and HPLC analysis relative to control
# Format: functional
# value in %; strip the unit string

Prompt: Any idea what Activity was measured for O=c1c(O[C@@H]2O[C@H](CO)[C@@H](O)[C@H](O)[C@H]2O)c(-c2ccc(O)c(O)c2)oc2cc(O)cc(O)c12 [ISOQUERCETIN] ?
Completion: 15

Prompt: Any idea what Activity was measured for O=c1c(O)c(-c2ccc(O)c(O)c2)oc2cc(O)cc(O)c12 [QUERCETIN] ?
Completion: 90

Prompt: Any idea what Activity was measured for O=c1cc(-c2ccc(O)c(O)c2)oc2cc(O)cc(O)c12 [LUTEOLIN] ?
Completion: 25

Prompt: Any idea what Activity was measured for COc1c(-c2ccc(O)c(O)c2)oc2cc(O)cc(O)c2c1=O [3-O-METHYLQUERCETIN] ?
Completion: 0
